# system: baculovirus-expressed ALK (Homo sapiens, UniProt Q9UM73)
# Construct: host or cells: baculovirus expression system
# Sequence (Q9UM73 19-1620): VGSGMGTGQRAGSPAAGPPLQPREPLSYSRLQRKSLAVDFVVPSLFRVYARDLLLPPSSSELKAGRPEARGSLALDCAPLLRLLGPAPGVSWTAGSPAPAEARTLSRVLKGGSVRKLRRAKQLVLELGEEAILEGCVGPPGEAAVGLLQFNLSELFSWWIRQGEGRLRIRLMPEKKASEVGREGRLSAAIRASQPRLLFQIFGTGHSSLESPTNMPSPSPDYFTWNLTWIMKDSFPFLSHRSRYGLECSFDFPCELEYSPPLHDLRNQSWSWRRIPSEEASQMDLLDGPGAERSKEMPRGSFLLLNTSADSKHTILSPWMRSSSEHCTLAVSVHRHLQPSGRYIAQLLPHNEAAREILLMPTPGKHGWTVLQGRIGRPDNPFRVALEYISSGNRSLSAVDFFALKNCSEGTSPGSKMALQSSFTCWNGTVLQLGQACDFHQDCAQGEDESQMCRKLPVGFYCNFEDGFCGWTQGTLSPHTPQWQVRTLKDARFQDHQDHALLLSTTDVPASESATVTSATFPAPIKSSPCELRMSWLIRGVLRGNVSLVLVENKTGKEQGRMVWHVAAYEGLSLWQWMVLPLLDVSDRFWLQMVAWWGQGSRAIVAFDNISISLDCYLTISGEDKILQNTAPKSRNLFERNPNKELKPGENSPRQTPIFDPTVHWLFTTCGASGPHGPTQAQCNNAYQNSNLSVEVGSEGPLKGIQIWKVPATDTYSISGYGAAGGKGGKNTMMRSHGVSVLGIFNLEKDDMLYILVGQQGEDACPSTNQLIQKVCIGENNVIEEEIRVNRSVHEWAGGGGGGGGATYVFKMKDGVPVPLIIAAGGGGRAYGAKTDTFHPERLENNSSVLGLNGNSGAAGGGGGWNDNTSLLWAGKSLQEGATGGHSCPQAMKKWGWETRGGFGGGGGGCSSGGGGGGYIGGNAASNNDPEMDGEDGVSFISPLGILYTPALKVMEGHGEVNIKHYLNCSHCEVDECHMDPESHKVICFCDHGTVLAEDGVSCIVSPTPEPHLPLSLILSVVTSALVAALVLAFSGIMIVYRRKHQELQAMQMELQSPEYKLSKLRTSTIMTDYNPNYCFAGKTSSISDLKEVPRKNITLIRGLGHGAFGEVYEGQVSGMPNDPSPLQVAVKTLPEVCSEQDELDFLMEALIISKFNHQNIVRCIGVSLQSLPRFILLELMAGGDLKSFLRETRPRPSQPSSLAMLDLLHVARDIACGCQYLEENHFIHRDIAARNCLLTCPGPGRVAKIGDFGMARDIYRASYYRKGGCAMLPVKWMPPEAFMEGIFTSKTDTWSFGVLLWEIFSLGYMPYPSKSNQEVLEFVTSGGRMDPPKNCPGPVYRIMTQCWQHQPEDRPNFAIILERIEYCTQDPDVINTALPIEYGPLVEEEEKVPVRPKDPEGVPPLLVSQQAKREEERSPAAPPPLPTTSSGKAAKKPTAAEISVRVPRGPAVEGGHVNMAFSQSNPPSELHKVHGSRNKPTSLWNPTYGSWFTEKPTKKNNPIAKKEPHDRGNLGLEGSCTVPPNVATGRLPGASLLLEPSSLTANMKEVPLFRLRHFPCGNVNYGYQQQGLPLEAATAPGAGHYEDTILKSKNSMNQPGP
# test.protocol: ALK Kinase Assay (ELISA-type, time-resolved fluorescence)
# Assay type: biochemical
# study.conditions: 1 μM ATP (Km level), 30 ng/ml ALK, 37° C., 15 minutes; read-out: ALK Activity (ALK kinase inhibition, IC50 class)
assay.metric: IC50

In the examples that follow, each entry is paired with its recorded IC50.
Entry `CNC(=O)CN1CCc2cc(Nc3ncc(Cl)c(Nc4ccccc4C(=O)NC)n3)c(OC)cc2CC1` ; IC50 = < 100 nM

Entry `CC(=O)N1CCC(=O)NCc2cc(Nc3ncc(Cl)c(Nc4ccccc4CCC#N)n3)ccc21` ; IC50 = 100 to 1000 nM

Entry `CC1(C)CCC(=O)Nc2ccc(Nc3ncc(Cl)c(Nc4c(F)cccc4C(=O)NCC#N)n3)cc21` ; IC50 = < 100 nM

Now for a further molecule.
Entry COc1cc2c(cc1Nc1ncc(Cl)c(Nc3ccccc3S(=O)(=O)N3CCC(O)C3)n1)CCC(N1CCN(C)CC1)CC2 (stereo not shown) ; IC50 = < 100 nM

* * *

# system: baculovirus-expressed ALK (Homo sapiens, UniProt Q9UM73)
# Construct: host or cells: baculovirus expression system
# test.protocol: ALK Kinase Assay (ELISA-type, time-resolved fluorescence)
# Assay type: biochemical
# study.conditions: ALK kinase inhibition, 1 μM ATP (Km level); read-out: ALK Activity
pIC50: −log10 of the molar value.
assay.metric: pIC50

Entry `COCCN1CCc2ccc(Nc3ncc(Cl)c(NCCNS(C)(=O)=O)n3)cc2CC1` ; pIC50 = 6.00 to 7.00

Further cases:
Entry `CNC(=O)c1ccccc1Nc1nc(Nc2ccc3c(c2)N(C)CCNC3)ncc1Cl` ; pIC50 = > 7.00

Entry `CCN1C(=O)CCC(C)(C)c2cc(Nc3ncc(Cl)c(Nc4c(Cl)cccc4C(=O)NC)n3)ccc21` ; pIC50 = 6.00 to 7.00

* * *

# system: c-Met (cytoplasmic domain) (Homo sapiens, UniProt P08581)
# Construct: 10 ng/mL c-Met (cytoplasmic domain, Invitrogen Corporation #PV3143); purchased Invitrogen Corporation PV3143
# Sequence (P08581 956-1390 limits assumed): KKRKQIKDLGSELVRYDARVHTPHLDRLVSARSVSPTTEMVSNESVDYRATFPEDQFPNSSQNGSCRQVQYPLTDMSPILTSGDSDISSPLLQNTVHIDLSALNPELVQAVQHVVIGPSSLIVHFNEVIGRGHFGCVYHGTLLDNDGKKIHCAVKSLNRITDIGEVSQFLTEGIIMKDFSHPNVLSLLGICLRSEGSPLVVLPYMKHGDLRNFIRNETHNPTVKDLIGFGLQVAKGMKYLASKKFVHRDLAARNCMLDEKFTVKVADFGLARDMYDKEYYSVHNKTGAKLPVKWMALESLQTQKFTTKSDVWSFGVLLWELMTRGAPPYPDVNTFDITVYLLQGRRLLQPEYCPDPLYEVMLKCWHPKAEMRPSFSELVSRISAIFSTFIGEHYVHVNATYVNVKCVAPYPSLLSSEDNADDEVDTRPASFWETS
# test.protocol: c-Met Kinase Assay (same methods as for ALK, with modifications)
# Format: biochemical
# study.conditions: 1 μM ATP (Km level), 10 ng/mL c-Met; read-out: cMet Activity (c-Met kinase inhibition, IC50 class)
pIC50: −log10 of the molar value.
Listed below: pIC50 values for each entry.

In the examples that follow, each entry is paired with its recorded pIC50.
Entry `COc1cc2c(cc1Nc1ncc(Cl)c(NC3(C(=O)NCC#N)CC3)n1)CCN(CC(=O)N(C)C)CC2` ; pIC50 = < 5.00

Entry `CNc1nc(OC)ccc1Nc1nc(Nc2cc3c(cc2OC)CCN(CC(=O)N(C)C)CC3)ncc1Cl` ; pIC50 = < 5.00

Entry `COc1cc2c(cc1Nc1ncc(Cl)c(Nc3ccccc3S(=O)(=O)N(C)C)n1)CCN(CCCN1CCOCC1)C(=O)C2` ; pIC50 = < 5.00

Entry `CNC(=O)c1cccc(Cl)c1Nc1nc(Nc2ccc3c(c2)CCN(CC(=O)N(C)C)CC3)ncc1Cl` ; pIC50 = > 7.00

Entry `CCNC(=O)c1cccc(F)c1Nc1nc(Nc2ccc3c(c2)C(C)(C)CCC(=O)N3)ncc1Cl` ; pIC50 = > 7.00

Further cases:
Entry `CC(=O)N1CCC(=O)NCc2cc(Nc3ncc(Cl)c(Nc4ccccc4OCC#N)n3)ccc21` ; pIC50 = > 7.00

Entry `COCCN1CCc2ccc(Nc3ncc(Cl)c(Nc4c(C)cccc4OCC#N)n3)cc2CC1` ; pIC50 = 6.00 to 7.00

Entry `N#CCNC(=O)c1cccc(F)c1Nc1nc(Nc2ccc3c(c2)CCCC(=O)N3)ncc1Cl` ; pIC50 = > 7.00

Entry `Cc1cccc(C(=O)NCC#N)c1Nc1nc(Nc2ccc3c(c2)C(C)(C)CCC(=O)N3)ncc1Cl` ; pIC50 = 6.00 to 7.00

Entry `COc1cc2c(cc1Nc1ncc(Cl)c(Nc3ccccc3OCC#N)n1)CCN(CC(=O)N(C)C)CC2` ; pIC50 = < 5.00

Entry `COc1cc2c(cc1Nc1ncc(Cl)c(Nc3ccccc3S(C)(=O)=O)n1)CCN(CC(N)=O)CC2` ; pIC50 = < 5.00

* * *

# system: c-Met (cytoplasmic domain) (Homo sapiens, UniProt P08581)
# Construct: 10 ng/mL c-Met (cytoplasmic domain, Invitrogen Corporation #PV3143); purchased Invitrogen Corporation PV3143
# test.protocol: c-Met Kinase Assay (same methods as for ALK, with modifications)
# Format: biochemical
# study.conditions: 1 μM ATP (Km level); read-out: cMet Activity (c-Met Kinase Inhibition, IC50)
assay.metric: IC50

In the examples that follow, each entry is paired with its recorded IC50.
Entry COCCNC1CCc2ccc(Nc3ncc(Cl)c(N[C@@H]4CCCC[C@H]4NS(C)(=O)=O)n3)c(OC)c2CC1 (single isomer, unassigned) [Example 694] ; IC50 = > 10 µM

Entry `COCCN1CCc2ccc(Nc3ncc(Cl)c(Nc4cccc5c4ncn5C)n3)cc2CC1` ; IC50 = 1 to 10 µM

Entry `Cc1cccc(-c2ccccc2Nc2nc(Nc3ccc4c(c3)C(C)(C)CCC(=O)N4)ncc2Cl)n1` ; IC50 = 1 to 10 µM

Now for a further compound.
Entry COc1ccc(Nc2ncc(Cl)c(Nc3ccccc3S(=O)(=O)C(C)C)n2)c2c1CCCC(N1CCOCC1)C2 (stereo not shown) ; IC50 = > 10 µM

* * *

# system: c-Met (cytoplasmic domain) (Homo sapiens)
# Construct: 10 ng/mL c-Met (cytoplasmic domain, Invitrogen Corporation #PV3143); purchased Invitrogen Corporation PV3143
# test.protocol: c-Met Kinase Assay (same methods as for ALK, with modifications)
# Format: biochemical
# study.conditions: c-Met kinase inhibition, 1 μM ATP; read-out: cMet Activity
pIC50: −log10 of the molar value.
assay.metric: pIC50

Entry CNC(=O)c1scc(C)c1Nc1nc(Nc2ccc3c(c2)NC(=O)CN(C(C)=O)C3)ncc1Cl [Example 1850] ; pIC50 = 6.00 to 7.00

Entry CNC(=O)c1ccccc1Nc1nc(Nc2ccc3c(c2)NC(=O)CN(CCOC)C3)ncc1Cl [Example 1864] ; pIC50 = > 7.00

Entry CNC(=O)c1cccc(F)c1Nc1nc(Nc2ccc3c(c2)NC(=O)CN(S(C)(=O)=O)C3)ncc1Cl [Example 1860] ; pIC50 = > 7.00

Entry CNC(=O)c1c(C)cccc1Nc1nc(Nc2ccc3c(c2)CCOC(=O)N3C)ncc1Cl [Example 1755] ; pIC50 = 6.00 to 7.00

Entry Cc1nnc(-c2ccccc2Nc2nc(Nc3ccc4c(c3)CCOC(=O)N4C)ncc2Cl)s1 [Example 1494] ; pIC50 = > 7.00

Further cases:
Entry CNC(=O)c1ccsc1Nc1nc(Nc2ccc3c(c2)NC(=O)CCC3)ncc1Cl [Example 1485] ; pIC50 = 6.00 to 7.00

Entry CNC(=O)c1cccc(F)c1Nc1nc(Nc2ccc3c(c2)N(C(C)=O)CCCC3)ncc1Cl [Example 1489] ; pIC50 = > 7.00

Entry CCN1C(=O)C(NC(=O)COC)CCc2ccc(Nc3ncc(Cl)c(Nc4c(F)cccc4C(=O)NC)n3)cc21 (stereo not shown) [Example 1498] ; pIC50 = > 7.00

Entry COc1cc(N2CCOCC2)ccc1Nc1nc(Nc2ccc3c(c2)N(C(C)C)C(=O)CCC3(C)C)ncc1Cl [Example 1591] ; pIC50 = < 5.00

Entry CN1Cc2cc(Nc3ncc(Cl)c(Nc4ccccc4OCC#N)n3)ccc2CCC1=O [Example 1810] ; pIC50 = > 7.00

Entry CCN1CCNc2cc(Nc3ncc(Cl)c(Nc4c(F)cccc4C(=O)NC)n3)ccc2C1=O [Example 1454] ; pIC50 = > 7.00

* * *

Listed below: pIC50 values for each entry.
# system: c-Met (cytoplasmic domain) (Homo sapiens, UniProt P08581)
# Construct: 10 ng/mL c-Met (cytoplasmic domain, Invitrogen Corporation #PV3143); purchased Invitrogen Corporation PV3143
# test.protocol: c-Met Kinase Assay (same methods as for ALK, with modifications)
# Type: biochemical
# study.conditions: 1 μM ATP (Km level); read-out: cMet Activity (c-Met Kinase Inhibition, IC50)
pIC50: −log10 of the molar value.

In the examples that follow, each entry is paired with its recorded pIC50.
Entry CCN1CCN(CC)c2cc(Nc3ncc(Cl)c(Nc4ccccc4-c4nccn4C)n3)ccc2C1 [Example 715] ; pIC50 = 6.00 to 7.00

Entry CCN1CCN(CC)c2cc(Nc3nc(Nc4cc5c(cc4OC)CCN(CC(=O)N(C)C)CC5)ncc3Cl)ccc2C1 [Example 723] ; pIC50 = < 5.00

Entry CNC(=O)c1cc(OC)ccc1Nc1nc(Nc2ccc3c(c2)CCN(CCOC)CC3)ncc1Cl [Example 618] ; pIC50 = > 7.00

Entry COc1cc2c(cc1Nc1ncc(Cl)c(Nc3ccc(N4CCN(C)CC4)c(C)c3)n1)CCN(CC(=O)N(C)C)CC2 [Example 792] ; pIC50 = < 5.00

Entry COc1c(Nc2ncc(Cl)c(N[C@@H]3CCCC[C@H]3NS(C)(=O)=O)n2)ccc2c1CCC(NCCO)CC2 (single isomer, unassigned) [Example 698] ; pIC50 = < 5.00

Further cases:
Entry COc1c(Nc2ncc(Cl)c(N[C@@H]3CCCC[C@H]3NS(C)(=O)=O)n2)ccc2c1CCC(N1CCOCC1)CC2 (mixture of isomers) [Example 884] ; pIC50 = < 5.00

Entry COc1ccc(Nc2nc(Nc3ccc4c(c3)CCC(N3CCOCC3)CC4)ncc2Cl)c(-n2cccn2)c1 (stereo not shown) [Example 622] ; pIC50 = 5.00 to 6.00
